# Test system: HBV viral production from HepAD38 cells
# MEASUREMENT DESCRIPTION: Activity of test compounds on viral production from HepAD38 cells (viral load by qPCR of HBV core sequence in supernatant)
# Format: cell-based
# TEST CONTEXT: Hepatitis B virus, 120 h, 5 days incubation, HBV DNA in supernatant by qPCR, top concentration 10 μM, read-out: Viral Load EC50 Activity range
ENDPOINT LABEL: EC50

COMPOUND	ENDPOINT LABEL	REPORTED MEASUREMENT
CN1C(C(=O)Nc2ccc(F)c(Cl)c2)CC(c2ccc(Br)s2)NS1(=O)=O (centres unmarked) [HBV-CSU-114]	EC50	< 1000 nM
CN1[C@H](C(=O)Nc2ccc(F)c(Cl)c2)C[C@H](c2cc(-c3cccnc3)cs2)NS1(=O)=O [HBV-CSU-167-ISO-I]	EC50	< 1000 nM
Cc1ccc(C2CC(C(=O)Nc3ccc(F)c(Cl)c3)N(C)S(=O)(=O)N2)s1 (racemic) [HBV-CSU-115]	EC50	< 1000 nM
O=C(Nc1ccc(F)c(Cl)c1)[C@H]1C[C@@H](c2nccs2)NS(=O)(=O)N1CCOCc1ccccc1 (relative stereo) [HBV-CSU-095-ISO-I]	EC50	1000 to 5000 nM
CN1[C@@H](C(=O)Nc2ccc(F)c(Cl)c2)C[C@@H](c2ncc(Br)s2)NS1(=O)=O [HBV-CSU-122-ISO-II]	EC50	1000 to 5000 nM
CN1[C@@H](C(=O)Nc2ccc(F)c(Cl)c2)C[C@@H](c2ccc(-c3cccnc3)s2)NS1(=O)=O [HBV-CSU-159-ISO-I]	EC50	1000 to 5000 nM
COCCN1[C@@H](C(=O)Nc2ccc(F)c(Cl)c2)C[C@@H](c2ccc(F)cc2)NS1(=O)=O [HBV-CSU-210-ISO-I]	EC50	> 5000 nM
CN1[C@H](C(=O)Nc2ccc(F)c(Cl)c2)C[C@H](c2ccc(-c3ccccn3)s2)NS1(=O)=O [HBV-CSU-160-ISO-I]	EC50	< 1000 nM
COC(C)(C)CCN1[C@@H](C(=O)Nc2ccc(F)c(Cl)c2)C[C@@H](c2nccs2)NS1(=O)=O [HBV-CSU-083-ISO-I]	EC50	> 5000 nM
CN1[C@@H](C(=O)Nc2ccc(F)c(Cl)c2)C[C@@H](c2ncc(-c3ccc(Br)c(F)c3)s2)NS1(=O)=O [HBV-CSU-173-ISO-II]	EC50	> 5000 nM
CN1C(C(=O)Nc2ccc(F)c(Cl)c2)CC(c2ccc3ncsc3c2)NS1(=O)=O (centres unmarked) [HBV-CSU-273]	EC50	< 1000 nM
CN1C(C(=O)Nc2ccc(F)c(Cl)c2)CC(c2cc(-c3ccccn3)cs2)NS1(=O)=O (racemic) [HBV-CSU-168]	EC50	< 1000 nM
CN1[C@@H](C(=O)Nc2ccc(F)c(Cl)c2)C[C@@H](c2ccc(-c3ccccn3)s2)NS1(=O)=O [HBV-CSU-160-ISO-II]	EC50	1000 to 5000 nM
CN1[C@@H](C(=O)Nc2ccc(F)c(Cl)c2)C[C@@H](c2ccc(Br)s2)NS1(=O)=O [HBV-CSU-114-ISO-II]	EC50	> 5000 nM

* * *

Recorded EC50 by entry
# System: HBV viral production from HepAD38 cells
# MEASUREMENT DESCRIPTION: Activity of test compounds on viral production from HepAD38 cells (viral load by qPCR of HBV core sequence in supernatant)
# Type: cell-based
# TEST CONTEXT: Hepatitis B virus, 120 h, 5 days incubation, HBV DNA in supernatant by qPCR, top concentration 10 μM, read-out: Viral Load EC50 Activity range

COMPOUND	EC50
CN1[C@@H](C(=O)Nc2ccc(F)c(Cl)c2)C[C@@H](c2nccs2)NS1(=O)=O	> 5000 nM
CN1[C@@H](C(=O)Nc2ccc(F)c(Cl)c2)C[C@@H](c2ccc(-c3ncn(C)n3)s2)NS1(=O)=O	> 5000 nM
CN1[C@H](C(=O)Nc2ccc(F)c(Cl)c2)C[C@H](c2cc(-c3cncnc3)cs2)NS1(=O)=O	< 1000 nM
COc1ccc(-c2csc([C@@H]3C[C@H](C(=O)Nc4ccc(F)c(Cl)c4)N(C)S(=O)(=O)N3)c2)cc1	1000 to 5000 nM
CCc1sc(C2CC(C(=O)Nc3ccc(F)c(Cl)c3)N(C)S(=O)(=O)N2)cc1-c1cnn(C)c1 (racemic)	< 1000 nM
CN1[C@@H](C(=O)Nc2ccc(F)c(Cl)c2)C[C@@H](c2ccc(-c3cncn3C)s2)NS1(=O)=O	< 1000 nM
CN1C(C(=O)Nc2ccc(F)c(Cl)c2)CC(c2ncc(-c3cn[nH]c3)s2)NS1(=O)=O (racemic)	< 1000 nM
O=C(Nc1ccc(F)c(Cl)c1)C1CC(c2nccs2)NS(=O)(=O)N1 (centres unmarked)	1000 to 5000 nM
Cc1c(-c2csc([C@H]3C[C@@H](C(=O)Nc4ccc(F)c(Cl)c4)N(C)S(=O)(=O)N3)c2)cnn1C	< 1000 nM
CN(C)CCCOc1ccc(C2CC(C(=O)Nc3ccc(F)c(Cl)c3)N(C)S(=O)(=O)N2)cc1 (racemic)	< 1000 nM
CN1C(C(=O)Nc2ccc(F)c(Cl)c2)CC(c2cccc(-c3cnn(C)c3)c2)NS1(=O)=O (racemic)	< 1000 nM
O=C(Nc1ccc(F)c(Cl)c1)C1CC(c2cccs2)NS(=O)(=O)N1CCO (centres unmarked)	> 5000 nM
CN1C(C(=O)Nc2ccc(F)c(Cl)c2)CC(c2ccc(-c3ccccn3)s2)NS1(=O)=O (racemic)	< 1000 nM
CSCCN1C(C(=O)Nc2ccc(F)c(Cl)c2)CC(c2nccs2)NS1(=O)=O (racemic)	< 1000 nM

* * *

# System: HBV viral production from HepAD38 cells
# MEASUREMENT DESCRIPTION: Activity of test compounds on viral production from HepAD38 cells (viral load by qPCR of HBV core sequence in supernatant)
# Type: cell-based
# TEST CONTEXT: Hepatitis B virus, 120 h, 5 days incubation, HBV DNA in supernatant by qPCR, top concentration 10 μM, read-out: Viral Load EC50 Activity range
# Protocol: Assay Measuring Activity of Test Compounds on Viral Production from HepAD38 Cells […] Subsequently viral load production was assayed by quantitative PCR (qPCR) of the HBV core sequence. […] Viral load was quantified against known HBV DNA standards by using ViiA™ 7 Software. […] Incubated the plate at room temperature for 10 min on an orbital shaker, and then read the plate with a plate reader (TECAN M1000 or Envision). […]
pEC50: −log10 of the molar value.
Recorded pEC50 by entry

COMPOUND	pEC50
CN1[C@H](C(=O)Nc2ccc(F)c(Cl)c2)C[C@H](c2ccon2)NS1(=O)=O [HBV-CSU-055-ISO-I]	> 6.00
Cc1ccc([C@@H]2C[C@H](C(=O)Nc3ccc(F)c(Cl)c3)N(C)S(=O)(=O)N2)s1 [HBV-CSU-115-ISO-II]	< 5.30
CN1[C@H](C(=O)Nc2ccc(F)c(Cl)c2)C[C@H](c2cc(-c3ccc(F)cc3)cs2)NS1(=O)=O [HBV-CSU-239-ISO-I]	> 6.00
CN1[C@@H](C(=O)Nc2ccc(F)c(Cl)c2)C[C@@H](c2ccc(-c3cn[nH]c3)s2)NS1(=O)=O [HBV-CSU-244-ISO-II]	> 6.00
[2H]C1[C@]([2H])(c2ccc(Br)s2)NS(=O)(=O)N(C)[C@]1([2H])C(=O)Nc1ccc(F)c(Cl)c1 (stereo in doubt) [HBV-CSU-371-ISO-I]	> 6.00
Cc1ncc([C@@H]2C[C@H](C(=O)Nc3ccc(F)c(Cl)c3)N(C)S(=O)(=O)N2)s1 [HBV-CSU-224-ISO-II]	< 5.30
CCN1C(C(=O)Nc2ccc(F)c(Cl)c2)CC(c2cccs2)NS1(=O)=O (racemic) [HBV-CSU-024]	> 6.00

* * *

Recorded pEC50 by entry
# Tested on: HBV viral production from HepAD38 cells
# MEASUREMENT DESCRIPTION: Activity of test compounds on viral production from HepAD38 cells (viral load by qPCR of HBV core sequence in supernatant)
# Assay type: cell-based
# TEST CONTEXT: Hepatitis B virus, 120 h, 5 days incubation, HBV DNA in supernatant by qPCR, top concentration 10 μM, read-out: Viral Load EC50 Activity range
pEC50: −log10 of the molar value.
ENDPOINT LABEL: pEC50

MOLECULE	STUDY TARGET	REPORTED MEASUREMENT
CN1C(C(=O)Nc2ccc(F)c(Cl)c2)CC(c2ccc(-c3cccs3)s2)NS1(=O)=O (stereo not shown) [HBV-CSU-162]	HBV viral production from HepAD38 cells	> 6.00
CN1[C@@H](C(=O)Nc2ccc(F)c(Cl)c2)C[C@@H](c2cc(-c3cnn(C)c3)cs2)NS1(=O)=O [HBV-CSU-169-ISO-II]	HBV viral production from HepAD38 cells	5.30 to 6.00
CN1[C@@H](C(=O)Nc2ccc(F)c(Cl)c2)C[C@@H](c2ccc(-c3cncnc3)s2)NS1(=O)=O [HBV-CSU-272-ISO-II]	HBV viral production from HepAD38 cells	< 5.30
CN1C(C(=O)Nc2ccc(F)c(Cl)c2)CC(c2ccc(Cc3ccccc3)s2)NS1(=O)=O (stereo not shown) [HBV-CSU-117]	HBV viral production from HepAD38 cells	> 6.00
CN1C(C(=O)Nc2ccc(F)c(Cl)c2)CC(c2nnc(-c3ccccc3)s2)NS1(=O)=O (racemic) [HBV-CSU-120]	HBV viral production from HepAD38 cells	> 6.00
CN1C(C(=O)Nc2ccc(F)c(Cl)c2)CC(c2cc(-c3cnn(C(F)(F)F)c3)cs2)NS1(=O)=O (racemic) [HBV-CSU-325]	HBV viral production from HepAD38 cells	> 6.00
CN1[C@H](C(=O)Nc2cccc(Br)c2)C[C@H](c2cccs2)NS1(=O)=O [HBV-CSU-017-ISO-I]	HBV viral production from HepAD38 cells	> 6.00

Sourced from patent US11078170B2
